Target: Human Factor B (human, UniProt P00751 26-764)
Sequence (P00751 26-764 limits assumed): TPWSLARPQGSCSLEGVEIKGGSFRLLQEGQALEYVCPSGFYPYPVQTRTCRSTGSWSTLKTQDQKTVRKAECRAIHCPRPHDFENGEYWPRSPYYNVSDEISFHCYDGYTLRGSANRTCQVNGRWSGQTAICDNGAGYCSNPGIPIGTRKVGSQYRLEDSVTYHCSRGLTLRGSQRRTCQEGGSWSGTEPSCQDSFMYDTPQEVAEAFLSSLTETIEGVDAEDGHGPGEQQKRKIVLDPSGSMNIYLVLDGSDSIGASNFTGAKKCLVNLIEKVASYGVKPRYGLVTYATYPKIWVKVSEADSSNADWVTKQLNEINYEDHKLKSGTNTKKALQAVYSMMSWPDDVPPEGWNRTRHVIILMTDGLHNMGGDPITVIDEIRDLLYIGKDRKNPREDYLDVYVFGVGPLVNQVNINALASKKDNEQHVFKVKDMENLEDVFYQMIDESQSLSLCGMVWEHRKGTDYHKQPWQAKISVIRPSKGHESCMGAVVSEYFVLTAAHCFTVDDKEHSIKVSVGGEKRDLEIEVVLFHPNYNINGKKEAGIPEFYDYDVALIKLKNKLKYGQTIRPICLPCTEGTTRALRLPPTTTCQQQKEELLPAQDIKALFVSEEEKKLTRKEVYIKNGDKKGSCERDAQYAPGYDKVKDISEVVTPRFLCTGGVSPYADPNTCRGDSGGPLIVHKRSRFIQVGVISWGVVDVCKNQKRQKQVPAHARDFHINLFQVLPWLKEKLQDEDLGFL
Experiment: cell-based or functional assay
measurement-kind: fB Cleavage EC50 (µM)

[[record]]
binder = "chymase C22S/K40L/F41R/L99N/F173Y/D175N/S218L/A226R (enzyme, also called MS No. 15) IIGGTESKPHSRPYMAYLEIVTSNGPSLRCGGFLIRRNFVLTAAHCAGRSITVTLGAHNITEEEDTWQKLEVIKQFRHPKYNTSTNHHDIMLLKLKEKASLTLAVGTLPFPSQFNFVPPGRMCRVAGWGRTGVLKPGSDTLQEVKLRLMDPQACSHYRNFDHNLQLCVGNPRKTKSAFKGDSGGPLLCAGVAQGIVSYGRLDAKPPRVFTRISHYRPWINQILQAN"
number = 0.119

[[record]]
binder = "chymase C22S/A190S/A226R (enzyme) IIGGTESKPHSRPYMAYLEIVTSNGPSKFCGGFLIRRNFVLTAAHCAGRSITVTLGAHNITEEEDTWQKLEVIKQFRHPKYNTSTLHHDIMLLKLKEKASLTLAVGTLPFPSQFNFVPPGRMCRVAGWGRTGVLKPGSDTLQEVKLRLMDPQACSHFRDFDHNLQLCVGNPRKTKSSFKGDSGGPLLCAGVAQGIVSYGRSDAKPPRVFTRISHYRPWINQILQAN"
number = 0.407

[[record]]
binder = "chymase C22S/F41R/L99G/G151T/F173Y/Y215R/R217M/A226R (enzyme) IIGGTESKPHSRPYMAYLEIVTSNGPSKRCGGFLIRRNFVLTAAHCAGRSITVTLGAHNITEEEDTWQKLEVIKQFRHPKYNTSTGHHDIMLLKLKEKASLTLAVGTLPFPSQFNFVPPGRMCRVAGWGRTGVLKPTSDTLQEVKLRLMDPQACSHYRDFDHNLQLCVGNPRKTKSAFKGDSGGPLLCAGVAQGIVSRGMSDAKPPRVFTRISHYRPWINQILQAN"
number = 4.33

